// values below are reported displacement (% relative to cold SDF1)
SYSTEM: T1, Human CXCR7 (human, UniProt P25106 1-362)
T1 construct: also called hCXCR7; CXCR7-LP
T1 sequence (P25106 whole entry): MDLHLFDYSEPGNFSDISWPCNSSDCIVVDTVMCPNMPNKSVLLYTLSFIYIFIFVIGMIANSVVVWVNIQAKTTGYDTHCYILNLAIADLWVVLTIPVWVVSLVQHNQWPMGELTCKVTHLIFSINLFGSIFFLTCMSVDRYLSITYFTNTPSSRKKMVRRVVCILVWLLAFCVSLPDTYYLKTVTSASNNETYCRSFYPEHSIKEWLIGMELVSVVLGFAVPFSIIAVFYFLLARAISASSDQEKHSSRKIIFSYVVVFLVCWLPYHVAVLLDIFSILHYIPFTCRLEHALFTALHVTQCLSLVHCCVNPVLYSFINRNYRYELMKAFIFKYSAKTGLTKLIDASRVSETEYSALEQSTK
PROTOCOL DETAILS: displacement of 75 pM [125I]-CXCL12 from NIH3T3-hCXCR7 cells
Procedure: In order to assess the competition capacity, Nanobodies were evaluated in SDF1 ligand displacement assays using stable NIH3T3-hCXCR7 cells. […] After incubation, cells were washed twice, lysed with RIPA buffer and the ¹²⁵I signal was measured. […]
MEASUREMENT TYPE: displacement (% relative to cold SDF1) (%)

{"columns": ["BINDER", "MEASUREMENT TYPE", "UNITS TEXT", "RESULT"],
 "data": [
  ["07B11 with Tag-2 (VHH, Purified monovalent Nanobody from E. coli (pAX100); also called 707B11) VHH: EVQLVESGGNLVQAGGSLGLSCAASVSISSIHIMGWYRQAPGKQRDLVATITSGGSTAYADSVKGRFTVSKDNAKNTVYLQMDSLKPEDTSVYYCAAEVRNGVFGKWNHYWGQGTQVTVSS", "displacement (% relative to cold SDF1)", "%", 75],
  ["07C3 with Tag-2 (VHH, Purified monovalent Nanobody from E. coli (pAX100); also called 7CXCR07C3) VHH: EVQLVESGGGLVQAGESLTLSCAASGRTLSAYIMGWFRQAPGKEREFVAGIWSGGYTHLADSAKGRFSISRDNAKNTVYLQMNGLKPEDTAVYYCAAGLRGRQYSNWGQGTQVTVSS", "displacement (% relative to cold SDF1)", "%", 78],
  ["08A5 with Tag-2 (VHH, Purified monovalent Nanobody from E. coli (pAX100)) VHH: EVQLVESGGGLVQAGDSLRLSCAASGLTFSNYDMGWFRQAPGKEREFVGASWWSGGAPYYSDSVKGRFTISRDNAKNTVYLQANSLRPEDTAVYYCAAKRLRSFASGGSYDYWGQGTQVTVSS", "displacement (% relative to cold SDF1)", "%", 77],
  ["Mab 11G8 (R&D Systems) (antibody, V domains shown) VH: EVKLVESGGDLVQPGGSLKLSCATSGFTFSDYYMFWVRQTPEKRLEWVAYITNGGDRSYYSDTVTGRFIISRDNAKNTLYLQMSRLKSEDTAMYYCARQGNWAAWFVYWGQGTLVTVSA VL: DVLMTQTPLSLPVSLGDQASISCRSSHYIVHSDGNTYLEWYLQKPGQSPKLLIYKVSNRFSGVPDRFSGSGSGTDFTLKISRVEAEDLGIYYCFQGSHVPLTFGAGTKLELKR", "displacement (% relative to cold SDF1)", "%", 24],
  ["08A10 with Tag-2 (VHH, Purified monovalent Nanobody from E. coli (pAX100)) VHH: EVQLVESGGGLVQAGGSLRLSCAASGSIFSIAAMGWYRQATGKQRELVATITDGGTTTYADSVKGRVTISRDRSANTVYLAMNNLKPDDTAVYYCYAYLRYTSRVPGDNYWGQGTQVTVSS", "displacement (% relative to cold SDF1)", "%", 75]
]}
